Assayed system: T1, Bfl-1, Q16548
T1 chain: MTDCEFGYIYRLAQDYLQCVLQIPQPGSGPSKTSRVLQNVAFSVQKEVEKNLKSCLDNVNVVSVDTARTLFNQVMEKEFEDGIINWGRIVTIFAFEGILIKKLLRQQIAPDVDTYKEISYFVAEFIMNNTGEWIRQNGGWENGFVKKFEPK
Measurement description: peptide SPOT array, c-Myc-tagged receptor at 1 uM or 100 nM, anti-c-Myc-Cy3
Quantity kind: SPOT signal as a fraction of Bim BH3's signal on the same receptor and array

FVGYNSTGAEDRHWSDMLANPRRPIA [SYT1] : 0.07

(A) APEEDFFSIHIRIVGDWTEGLFNACG [CYBB]
(B) AFGLGDLPNLLGLVGDQLGDTERKRR [ADAMTS14]
// query Hi, I'm comparing A with B and wondering which one has the bigger number for SPOT signal as a fraction of Bim BH3's signal on the same receptor and array. Any idea? # respond with the chosen item's label
// result B
(B: 0.06, A: 0.04)
